target: UniProtKB P26358; assay: Inhibition of DNMT1 assessed as drug level causing inhibition by SPA
Sequence (P26358 whole entry): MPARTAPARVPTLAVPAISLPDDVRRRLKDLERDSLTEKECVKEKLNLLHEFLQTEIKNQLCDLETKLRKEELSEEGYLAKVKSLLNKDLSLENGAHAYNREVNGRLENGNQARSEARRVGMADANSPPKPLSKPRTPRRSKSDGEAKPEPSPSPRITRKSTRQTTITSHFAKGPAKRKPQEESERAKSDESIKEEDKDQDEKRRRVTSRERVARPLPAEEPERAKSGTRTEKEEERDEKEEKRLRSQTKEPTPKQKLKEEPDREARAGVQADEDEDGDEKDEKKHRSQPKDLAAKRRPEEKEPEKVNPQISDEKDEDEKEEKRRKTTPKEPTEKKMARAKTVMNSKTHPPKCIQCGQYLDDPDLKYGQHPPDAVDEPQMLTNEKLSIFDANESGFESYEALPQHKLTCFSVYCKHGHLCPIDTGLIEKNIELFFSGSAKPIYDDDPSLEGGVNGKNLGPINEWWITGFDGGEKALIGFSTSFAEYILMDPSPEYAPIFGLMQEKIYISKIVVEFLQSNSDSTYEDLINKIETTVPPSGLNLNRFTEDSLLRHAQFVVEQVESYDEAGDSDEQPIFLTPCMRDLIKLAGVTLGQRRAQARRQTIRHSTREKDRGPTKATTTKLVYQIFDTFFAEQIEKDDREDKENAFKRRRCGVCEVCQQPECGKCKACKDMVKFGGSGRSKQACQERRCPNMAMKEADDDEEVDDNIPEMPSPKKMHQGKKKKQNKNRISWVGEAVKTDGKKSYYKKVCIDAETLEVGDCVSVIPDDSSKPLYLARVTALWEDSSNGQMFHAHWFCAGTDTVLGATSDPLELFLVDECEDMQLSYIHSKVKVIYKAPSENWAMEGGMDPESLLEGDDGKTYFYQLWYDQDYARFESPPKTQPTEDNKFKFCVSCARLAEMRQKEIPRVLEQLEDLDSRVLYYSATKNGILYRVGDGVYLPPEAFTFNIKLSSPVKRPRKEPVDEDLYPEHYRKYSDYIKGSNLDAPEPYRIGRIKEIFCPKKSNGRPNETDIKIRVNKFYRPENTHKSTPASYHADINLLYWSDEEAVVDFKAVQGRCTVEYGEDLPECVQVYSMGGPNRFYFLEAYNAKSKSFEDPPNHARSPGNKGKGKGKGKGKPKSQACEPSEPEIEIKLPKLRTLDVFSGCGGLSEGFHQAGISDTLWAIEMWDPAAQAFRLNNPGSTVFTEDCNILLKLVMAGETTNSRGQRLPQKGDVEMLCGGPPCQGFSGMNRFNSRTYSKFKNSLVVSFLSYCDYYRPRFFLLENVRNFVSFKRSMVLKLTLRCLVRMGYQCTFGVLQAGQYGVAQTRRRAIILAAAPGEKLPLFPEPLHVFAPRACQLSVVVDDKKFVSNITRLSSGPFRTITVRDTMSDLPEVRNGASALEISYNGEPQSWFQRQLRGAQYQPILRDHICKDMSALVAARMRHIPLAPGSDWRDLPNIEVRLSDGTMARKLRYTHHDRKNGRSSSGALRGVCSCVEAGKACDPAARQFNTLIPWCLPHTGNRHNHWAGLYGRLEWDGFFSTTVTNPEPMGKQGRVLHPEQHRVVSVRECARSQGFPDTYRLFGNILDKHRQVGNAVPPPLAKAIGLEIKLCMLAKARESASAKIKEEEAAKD
assayMetric: Activity (µM)

[
  {
    "compound": "C=C(Cl)/C(=C\\Br)CCC(Br)=C(C)C",
    "targetSystem": "UniProtKB P26358",
    "displayUnit": "µM",
    "reportedResult": 1.65
  }
]

1 = C=C[C@](Cl)(CBr)CC[C@@H](Br)C(C)(C)Cl
2 = C=C(Cl)[C@](Cl)(CBr)CC[C@@H](Br)C(C)(C)Cl
3 = C=C(Cl)/C(=C\Br)CCC(Br)C(C)(C)Cl (centres undefined)
Would you mind ranking these compounds by ascending Activity? Enter labels, ranked according to the request.
2, 1, 3
(2: 1.25 µM, 1: 21.9 µM, 3: 55 µM)

Source listed as ChEMBL document CHEMBL1157312.
